assay: Half life in cynomolgus monkey at 3 mg/kg, iv; format: ADME, organism-based, Macaca fascicularis; settings: in vivo
Metric: half-life (min)
Give bare numbers, in min.

Enquiry: Name the reported half-life value associated with the compound "CC/C(=C(/c1ccc(/C=C/C(=O)O)cc1)c1ccc2[nH]ncc2c1)c1ccc(F)cc1Cl"
Return: 780

###

assay: Clearance in rat at 3 mg/kg, iv and 10 mg/kg, po; type: ADME, organism-based; conditions: in vivo
Metric: clearance
The reply must contain the numeric value and, after it, the unit.

Enquiry: Give the measured clearance of "CC/C(=C(/c1ccc(/C=C/C(=O)O)cc1)c1ccc2[nH]ncc2c1)c1ccc(F)cc1Cl" .
Return: 14 mL/min/kg

###

experiment: AUC in mouse at 10 mg/kg, po; assay type: ADME, organism-based; settings: in vivo
Metric: AUC (ng·h/mL)
Answers are plain numbers, in ng·h/mL.

Consider the reported AUC for these molecules:
> print(dat)
                                   molecule  value
1  CC/C(=C(/c1ccc(/C=C/C(=O)O)cc1)c1ccc2[nH]ncc2c1)c1cscc1C   3800
2  CC/C(=C(/c1ccc(/C=C/C(=O)O)cc1)c1ccc2[nH]ncc2c1)c1ccncc1Cl    110
3  CC/C(=C(/c1ccc(/C=C/C(=O)O)cc1)c1ccc2[nH]ncc2c1)c1cccc(Cl)c1  11000
4  CC/C(=C(/c1ccc(/C=C/C(=O)O)cc1)c1ccc2[nH]ccc2c1)c1ccccc1   9400
5  CC/C(=C(/c1ccc(/C=C/C(=O)O)cc1)c1ccc2[nH]ncc2c1)c1ccc(C#N)cc1C   4300

Now examine the next entry.
Enquiry: Fill blank: measured AUC of the molecule CC/C(=C(/c1ccc(/C=C/C(=O)O)cc1)c1ccc2[nH]ncc2c1)c1ccc(F)cc1Cl [BRILANESTRANT] is ____.
Return: 8800

###

assay: Cmax in rat at 10 mg/kg, po; type: ADME, organism-based; set-up: dose 10 mg/kg, route oral; conditions: in vivo
Metric: Cmax (ng/mL)
Numbers only, in ng/mL.

Enquiry: # Cmax lookup, item CC/C(=C(/c1ccc(/C=C/C(=O)O)cc1)c1ccc2[nH]ncc2c1)c1ccc(F)cc1Cl [BRILANESTRANT]
Return: 1800

###

assay: Half life in rat at 3 mg/kg, iv; format: ADME, organism-based; settings: in vivo
Metric: half-life (h)
Give bare numbers, in h.

Enquiry: Form field: reported half-life of "CC/C(=C(/c1ccc(/C=C/C(=O)O)cc1)c1ccc2[nH]ncc2c1)c1ccc(F)cc1Cl"
Return: 3.9

###

test: Oral bioavailability in rat at 10 mg/kg; type: ADME, organism-based; settings: in vivo
Metric: bioavailability (%)
Numbers only, in %.

Enquiry: Dear colleague, I am looking for the recorded bioavailability of the following compound: "CC/C(=C(/c1ccc(/C=C/C(=O)O)cc1)c1ccc2[nH]ncc2c1)c1ccc(F)cc1Cl"
Return: 49

###

assay: AUC in mouse at 10 mg/kg, po; type: ADME, organism-based; conditions: in vivo
Metric: AUC (ng·h/mL)
Answers are plain numbers, in ng·h/mL.

> print(dat)
                            compound.smiles  metric  value
1  CC/C(=C(/c1ccc(/C=C/C(=O)O)cc1)c1ccc2[nH]ncc2c1)c1ccc(C#N)cc1Cl     AUC   2900
2  CC/C(=C(/c1ccc(/C=C/C(=O)O)cc1)c1ccc2[nH]ncc2c1)c1ccccc1C     AUC   7200
3  CC/C(=C(/c1ccc(/C=C/C(=O)O)cc1)c1ccc2[nH]ncc2c1)c1ccccc1Cl     AUC  15000
4  CC/C(=C(/c1ccc(/C=C/C(=O)O)cc1)c1ccc2[nH]nnc2c1)c1ccccc1     AUC   2300
5  CC/C(=C(/c1ccc(/C=C/C(=O)O)cc1)c1ccc2[nH]ncc2c1)c1ccccc1C#N     AUC    200
6  CC/C(=C(/c1ccc(/C=C/C(=O)O)cc1)c1ccc2[nH]c(=O)oc2c1)c1ccccc1     AUC   3000
7  CC/C(=C(/c1ccc(/C=C/C(=O)O)cc1)c1cccc2[nH]ncc12)c1ccccc1     AUC   2800
8  CC/C(=C(/c1ccc(/C=C/C(=O)O)cc1)c1ccc2[nH]ncc2c1)c1ccncc1C     AUC     81

Next compound, AUC to be filled in.
Enquiry: Record request: AUC value, item "CC/C(=C(/c1ccc(/C=C/C(=O)O)cc1)c1ccc2[nH]ncc2c1)c1ccccc1"
Return: 5800

###

test: Clearance in dog at 3 mg/kg, iv and 10 mg/kg, po; format: ADME, organism-based, Canis lupus familiaris; details: in vivo
Metric: clearance (mL/min/kg)
Give bare numbers, in mL/min/kg.

Enquiry: So what's the measured clearance for this one? "CC/C(=C(/c1ccc(/C=C/C(=O)O)cc1)c1ccc2[nH]ncc2c1)c1ccc(F)cc1Cl"
Return: 1.6

###

assay: Half life in dog at 3 mg/kg, iv; assay type: ADME, organism-based, Canis lupus familiaris; settings: in vivo
Metric: half-life (h)
Give bare numbers, in h.

Enquiry: If you can, please state the reported half-life value of "CC/C(=C(/c1ccc(/C=C/C(=O)O)cc1)c1ccc2[nH]ncc2c1)c1ccc(F)cc1Cl" .
Return: 11

###

assay: Oral bioavailability in cynomolgus monkey at 10 mg/kg; type: ADME, organism-based, Macaca fascicularis; conditions: in vivo
Metric: bioavailability
For clarity, give the value followed by its unit.

Enquiry: Can you share its bioavailability? I mean this compound: "CC/C(=C(/c1ccc(/C=C/C(=O)O)cc1)c1ccc2[nH]ncc2c1)c1ccc(F)cc1Cl"
Return: 42%

###

Would you kindly list AUC at 672 h for each of these molecules?
test: AUC in 17-beta estradiol pellets supplemented nu/nu mouse xenografted with tamoxifen-resistant human MCF7 cells at 100 mg/kg/day, po administered for 4 weeks measured on day 28; type: ADME, organism-based; details: in vivo
Answers are plain numbers, in ng·h/mL.

Worked cases, AUC at 672 h given:
> print(dat)
                                   molecule        metric  value
1  Cc1c(-c2ccc(O)cc2)n(Cc2ccc(OCCN3CCCCC3)cc2)c2ccc(O)cc12 [PIPENDOXIFENE]  AUC at 672 h   7000
2  COc1ccc(-c2sc3cc(O)ccc3c2Oc2ccc(OCCN3CCCCC3)cc2)cc1 [ARZOXIFENE]  AUC at 672 h  50000

Now take the following molecule into account.
Enquiry: So what's the measured AUC at 672 h for this one? CC/C(=C(/c1ccc(/C=C/C(=O)O)cc1)c1ccc2[nH]ncc2c1)c1ccc(F)cc1Cl [BRILANESTRANT]
Return: 45000

###

Field: concentration at 6 h. Provide a value for each of the molecules that follow.
assay: Drug uptake in CD-IGS rat at 1 mg/kg, po administered for 3 days measured at 6 hrs post last dose; format: ADME, organism-based; conditions: in vivo, read-out: Drug uptake
One number for each entry, in nM.

Please give concentration at 6 h, item by item, for the list that follows.
1. CC/C(=C(/c1ccc(/C=C/C(=O)O)cc1)c1ccc2[nH]ncc2c1)c1ccc(C#N)cc1Cl
2. CC/C(=C(/c1ccc(/C=C/C(=O)O)cc1)c1ccc2[nH]ncc2c1)c1ccc(C#N)cc1C

Return:
1. 10
2. 14

###

experiment: Drug uptake in CD-IGS rat at 1 mg/kg, po administered for 3 days measured at 24 hrs post last dose; format: ADME, organism-based; conditions: in vivo, read-out: Drug uptake
Metric: concentration at 24 h
Note to self: number, then unit, no commentary.

Respectfully, I request concentration at 24 h for each entry included below.
1. CC/C(=C(/c1ccc(/C=C/C(=O)O)cc1)c1ccc2[nH]ncc2c1)c1ccccc1C
2. CC/C(=C(/c1ccc(/C=C/C(=O)O)cc1)c1ccc2[nH]ncc2c1)c1ccccc1
3. CC/C(=C(/c1ccc(/C=C/C(=O)O)cc1)c1ccc2[nH]ncc2c1)c1ccc(F)cc1Cl
4. CC/C(=C(/c1ccc(/C=C/C(=O)O)cc1)c1cccc2[nH]ncc12)c1ccccc1
5. CC/C(=C(/c1ccc(/C=C/C(=O)O)cc1)c1ccc2[nH]ncc2c1)c1ccncc1Cl

Return:
1.7 nM
3.8 nM
5.2 nM
0.1 nM
0.5 nM

List concentration at 24 h for every entry below, keeping the order given.
1. CC/C(=C(/c1ccc(/C=C/C(=O)O)cc1)c1ccc2[nH]c(=O)oc2c1)c1ccccc1
2. CC/C(=C(/c1ccc(/C=C/C(=O)O)cc1)c1ccc2[nH]ncc2c1)c1cccc(Cl)c1

Return:
1: 0.2 nM; 2: 11 nM

Provide each entry's concentration at 24 h from the list below.
1. CC/C(=C(/c1ccc(/C=C/C(=O)O)cc1)c1ccc2[nH]ncc2c1)c1ccncc1C
2. CC/C(=C(/c1ccc(/C=C/C(=O)O)cc1)c1ccc2[nH]ncc2c1)c1ccccc1Cl
3. CC/C(=C(/c1ccc(/C=C/C(=O)O)cc1)c1ccc2[nH]ncc2c1)c1cscc1C

Return:
1: 7.6 nM; 2: 3.7 nM; 3: 10 nM
